Sourced from PubChem BioAssay

- System: Voltage-gated potassium channel subunit beta-2 (Rattus norvegicus)
- Assay overview: enhancers of rat Kvbeta2 NADPH turnover – biochemical, NADPH fluorescence, primary screen (AID 623);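 note: fluorescence intensity change per second fitted from 20 to 320 s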
- Condition: Recombinant KvBeta, NADPH fluorescence decrease slope, 10 min; at 10 µM; stronger effect = lower value
Measured property: NADPH fluorescence slope
Lab note: jot down the number only; don't add units.

Consider the following illustrative entries.
COc1ccc(-c2noc(CCCOc3ccccc3)n2)cc1OC = -1.6e-05
CCOC(=O)n1c(SCC(=O)N(CC)CC)nc2ccccc21 = -4.3e-05

Test system Voltage-gated potassium channel subunit beta-2 (Rattus norvegicus); read-out NADPH fluorescence slope; what value for CCOC(=O)c1[nH]c(C)c(C(=O)Nc2ccc(C)cc2C)c1C ?
-1.3e-05

Test system Voltage-gated potassium channel subunit beta-2 (Rattus norvegicus); read-out NADPH fluorescence slope; what value for O=C(c1ccc(Br)cc1)N1CCN(S(=O)(=O)c2ccccc2)CC1 ?
-9.2e-07

Test system Voltage-gated potassium channel subunit beta-2 (Rattus norvegicus); read-out NADPH fluorescence slope; what value for CCC(C(=O)Nc1ncccn1)(C(F)(F)F)C(F)(F)F ?
5.3e-05

Test system Voltage-gated potassium channel subunit beta-2 (Rattus norvegicus); read-out NADPH fluorescence slope; what value for Cc1ccc(C)c(CSc2nnc(CCN)o2)c1 ?
-9.3e-06

Test system Voltage-gated potassium channel subunit beta-2 (Rattus norvegicus); read-out NADPH fluorescence slope; what value for COc1ccc(CCNc2oc(-c3ccccc3OC)nc2C#N)cc1 ?
2.3e-05

Test system Voltage-gated potassium channel subunit beta-2 (Rattus norvegicus); read-out NADPH fluorescence slope; what value for COC(=O)Cc1cc(=O)n(-c2ccccc2)[nH]1 ?
-1.8e-05

###

Attribute: inhibition
- Assay overview: TLR3 IRF3 reporter activation blockers – cell-based, poly I:C stimulus, luciferase, 10K MLSCN set, primary screen (AID 602277)
- Condition: HEK293-TLR3 RL24 IRF3 luciferase reporter, at 10 µM, stronger effect = higher value
The source made the active and inactive calls.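 The calls were made as follows: active = inhibition of the reporter signal at or above 50%; inactive = inhibition below 50%.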

Consider the following illustrative entries.
CCCNC(=O)N1CCN(S(=O)(=O)c2ccc(C)c(C)c2)CC1 = -8.98% (inactive)
O=C(CN(c1ccc(F)cc1)S(=O)(=O)c1ccc2c(c1)OCCO2)Nc1cccnc1 = 18.5% (inactive)

Can you look up the measured inhibition of O=C(CSc1ccccc1C(=O)NCCCN1CCCC1=O)NCc1ccco1 for me?
12.7% (inactive)

Can you look up the measured inhibition of O=C(NCc1ccco1)c1c2c(nc3ccccc13)CCC2 for me?
7.89% (inactive)

Can you look up the measured inhibition of O=C(C1CCCO1)N1CCN(S(=O)(=O)c2ccccc2)CC1 (stereo not given) for me?
12.9% (inactive)

Can you look up the measured inhibition of CCOC(=O)N1CCN(C(=O)c2ccc(CS(=O)(=O)c3ccc(OC)cc3)o2)CC1 for me?
23.8% (inactive)

Can you look up the measured inhibition of CCOC(=O)CC(=O)CSc1nc(-c2cccnc2)ccc1C#N for me?
-33.1% (inactive)

###

- Assay overview: endothelial E-selectin expression blockers – imaging, HUVEC, immunofluorescence, MLSMR starter and 10KST1 sets, primary screen (AID 487);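 note: 100% = median nuclei count of all wells on the same plate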
- Condition: HUVEC TNFalpha-induced E-selectin immunofluorescence imaging, at 2 µM; measured here: cell number, toxicity
Attribute: nuclei count
Response body: numeric value in %, unit text excluded.

Consider the following illustrative entries.
O=C(CSc1ncccn1)c1ccccc1Br = 103
COc1cccc(C2CC(c3ccc(C)cc3)Nc3nc(N)nn32)c1 (stereo unspecified) = 101
O=C1CCC(=O)N1OCCCOc1ccc(Br)cc1Cl = 106

Can you look up the measured nuclei count of COC(=O)c1ccc(CSc2nc(-c3ccc(OC)cc3)nc3c2c(=O)n(C)c(=O)n3C)o1 for me?
103

Can you look up the measured nuclei count of CN1CCc2c(sc3c2C(=O)NC(c2cccc(OC(=O)c4cccs4)c2)N3)C1 (stereo unspecified) for me?
108
